Assay: compounds interfering with TAMRA-BSA probe, counter-screen for TCR-CD3 interaction inhibitor project, biochemical, fluorescence, TAMRA-labeled BSA (AID 652035)
Details: TAMRA-labeled BSA probe fluorescence counterscreen; at 9.4 µM
This is one part of the list. Active and inactive are the calls of the source. Cut-off read from the data, not from the text of the source: active = inhibition above about 23%; inactive = the rest.
Select the matching outcome among active, inactive

See these solved cases before continuing.
Cc1cc2nc3c(=O)[nH]c(=O)nc-3n(C[C@H](O)[C@H](O)[C@H](O)CO)c2cc1C; active
CN1c2ccc(C=O)c3c(C=O)ccc(c23)N(C)C1(C)C; inactive
CCOCC(=O)NCc1ccc2c(c1)cc(C)n2C; inactive
O=S1(=O)c2c(cccc2N2CCCC2)O[C@H](COCc2ccccc2)CN1C1CC1; inactive
COc1ccc(NS(=O)(=O)c2cc(NC(=O)/C=C/c3cc(OC)c(OC)c(OC)c3)ccc2N2CCCCC2)cc1; inactive
CN1CCN(/N=C/c2ccc(C#N)cc2)CC1; inactive
O=c1[nH]n(-c2ccc([N+](=O)[O-])cc2)c(=O)c2ccccc12; active
Cc1cc2ccccc2n1CCNC(=O)COc1ccc2ccccc2c1; inactive
CN(C)CCNC(=O)C(C(=O)c1ccccc1)n1ccccc1=O (stereo not drawn); inactive
CNC(=S)NNC(=O)c1oc2nc(-c3ccccc3)cc(-c3ccco3)c2c1N; inactive

Input line: Call for entry `COc1ccc(-c2c(-c3cc(OC)cc(OC)c3)n(C)c3ccc(-c4ccn[nH]4)cc23)cc1` :
Output line: inactive

Input line: State the result this test recorded for `C=CC1=C(C(=O)O)N2C(=O)[C@@H](NC(=O)/C(=N/OCC(=O)O)c3csc(N)n3)[C@H]2SC1` .
Output line: inactive

Input line: Lab log entry: COc1cccc2c1C(=O)c1c(O)c3c(c(O)c1C2=O)CC(O)(C(C)=NNC(=O)c1ccc(Cl)c(Cl)c1)CC3OC1CC(N)C(O)C(C)O1 (stereo not drawn) — outcome as called in the assay?
Output line: active
